# Test system: DMS 114 small cell lung
# methodSummary: NCI tumour cell line growth inhibition, 48 h
assayReadout: TGI

INSERT INTO results (compound, assayreadout, reported) VALUES
  ('COc1ccc(NC(=O)C(=O)C2NC(=S)NC2=O)c(OC)c1 (stereo unspecified)', 'TGI', '> 100 µM'),
  ('CN(O)C(=O)Cc1ccccc1', 'TGI', '> 100 µM'),
  ('COc1ccc(C2S/C(=C\c3ccc(OC)cc3OC)C(=O)N2NC(=O)Cc2ccccc2)cc1 (stereo unspecified)', 'TGI', '> 100 µM');

Check DMS 114 small cell lung data and give TGI for C[Si](C)(C)/C=C/CN1C(=O)CCC1O (stereo unspecified) .
> 100 µM

Lab note: record TGI of CC1=C2C(c3ccccc3)(c3ccccc3)C3C=CC2(C=N3)N(C(=O)NC2CCCCC2)C1=O (stereo unspecified) tested on DMS 114 small cell lung.
32.5 µM

Provide measured TGI on DMS 114 small cell lung for Cn1c(O)c(C(=O)Nc2ccc([N+](=O)[O-])cc2)c(=O)n(C)c1=S please.
4.81 µM

With DMS 114 small cell lung as the test system, provide measured TGI for this compound: CCN(CC)CCCNC(=O)Cc1ccccc1Nc1c(Cl)cccc1Cl
27.6 µM

Look up and report TGI, with DMS 114 small cell lung as system, for CC1(C)OCN(c2ccc(Cl)cc2)Cn2c1nc1ccccc12
53.2 µM

Report the value of TGI obtained on DMS 114 small cell lung for C=C1C(C)C2C(Cc3ccccc3)NC(=O)C23C(OC(C)=O)/C=C/C(C)(O)CC(C)C/C=C/C3C1O (stereo unspecified) .
> 100 µM

Determine reported TGI for Cc1ccc(NC(=O)C(=O)Cc2nc3ccccc3o2)c(C)c1 ; test system: DMS 114 small cell lung.
> 100 µM

Lab note: record TGI of Cc1nc(C(N)=S)sc1C(=O)/C=C/c1cccc(O)c1 tested on DMS 114 small cell lung.
> 100 µM

Quote DMS 114 small cell lung TGI for entry CC(=O)c1cccc(NC2C(N)C(NC(=O)N(C)C)(C(C)O)C(C)(O)C2(O)COC(=O)c2c(C)cccc2O)c1 (stereo unspecified) .
0.0855 µM

Report its TGI with DMS 114 small cell lung as the test system: COC(=O)C1=C(C(=O)OC)C2(C(=O)OC)OC1(OC)C(C1(C(=O)OC)C(C(=O)OC)=C1C(=O)OC)=C2C(=O)OC (stereo unspecified)
> 100 µM

Please respond with reported TGI (system DMS 114 small cell lung) for COc1cc(C2C(C(=O)Nc3ccccc3)=C(C)NC(C)=C2C(=O)Nc2ccccc2)ccc1O .
> 100 µM

Quote DMS 114 small cell lung TGI for entry Nc1ccn(C2OC(COP(=O)(O)Oc3ccccc3)C(O)C2O)c(=O)n1 (stereo unspecified) .
> 100 µM

State TGI on DMS 114 small cell lung. Entry: CCN(CC)CCNc1ccc(C)c2sc3ccc(O)cc3c(=O)c12
2.27 µM

Answer with TGI of CN1OC(=O)N(C)C1c1ccccc1 (stereo unspecified) measured for DMS 114 small cell lung.
> 100 µM

Give measured TGI for C=C1C(=O)OC2/C=C(\C)C(O)/C=C\C(C)(O)CC(OC(=O)/C(C)=C/C)C12 (stereo unspecified) (DMS 114 small cell lung).
> 78.2 µM

GET TGI | system: DMS 114 small cell lung | item: COc1ccc(C(=O)C=C2NCCN2)cc1
> 100 µM

Recall the reported TGI of Cc1ccc2[nH]c3c(C)c4ccncc4c(C)c3c2c1 on DMS 114 small cell lung and write it down.
2.71 µM

Report TGI under test system DMS 114 small cell lung for COc1ccc(O)c2c1C(=O)CCCC2=O .
> 100 µM
